- Test system: SNB-75
- Assay method text: NCI tumour cell line growth inhibition, 48 h
Calls of active or inactive are those of the source. Rule as the data show it: active = GI50 up to about 1.1 µM and inactive = higher.
Test readout: GI50

Prompt: Quickly give me recorded GI50 for "CCOC(=O)/C(=N/Nc1ccc(Cl)cc1)N1C(=S)N(C)N=C(C)C=C1S"
Completion: 24.2 µM (inactive)

---

- Tested on: HOP-92
- Assay method text: NCI tumour cell line growth inhibition, 48 h
Activity calls are given as the source filed them. Cut-off read from the data, not from the text of the source: active = GI50 up to about 1.1 µM and inactive = higher.
Pick one and only one: label 1 = active, label 0 = inactive

Prompt: Per the records of this test, what outcome belongs to Nc1nc(SCCC/C=C/I)nc2c1ncn2C1OC(CO)C(O)C1O (stereo unspecified) ?
Completion: label 0

Prompt: Per the records of this test, what outcome belongs to O=C(Nc1cccc(C(F)(F)F)c1)C(=O)C(C(=O)c1ccc(Cl)c(Cl)c1)C1OC(=O)c2ccccc21 (stereo unspecified) ?
Completion: label 0

Prompt: Per the records of this test, what outcome belongs to CC1(C)S[C@@H]2[C@H](NC(=O)[C@H](N)c3ccccc3)C(=O)N2[C@H]1C(=O)O [AMPICILLIN] ?
Completion: label 0

Prompt: Per the records of this test, what outcome belongs to "Cc1sc(N)c(S(=O)(=O)c2ccccc2)c1C" ?
Completion: label 0

Continuing:
Prompt: Per the records of this test, what outcome belongs to "COc1ccc(Oc2cccc(/C=C3/C(=O)Nc4ccccc43)c2)cc1" ?
Completion: label 0

Prompt: Per the records of this test, what outcome belongs to "Cc1ccccc1NC(=O)Cc1csc2[n+]1C(=O)/C(=C/c1ccc([N+](=O)[O-])cc1)S2" ?
Completion: label 0

Prompt: Per the records of this test, what outcome belongs to COc1ccc2nc(NC(=O)C(=O)C(C#N)c3ccc(Cl)c(Cl)c3)sc2c1 (stereo unspecified) ?
Completion: label 0

Prompt: Per the records of this test, what outcome belongs to O=C1CCC2(c3ccc(F)cc3)Nc3ncncc3N12 (stereo unspecified) ?
Completion: label 0
